- Test system: DMS 114 tumor spheroids, viability % test/control
- assay.procedure: Anticancer human tumor DMS 114 cell line growth inhibition;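 further: spheroids exposed to compounds for 7 days before read-out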;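 on viability, T/C: luminescence used as a proxy for viable cells; 100% = DMSO vehicle control viability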
- measurement.context: second compound 0.0003 µM; first compound 0.3 µM; stronger effect = lower value; spheroids with HUVEC and MSC

molecule	viability, T/C (%)
CNCc1ccc(-c2cc(-c3nc(-c4ccc(S(=O)(=O)C(C)C)cc4)cnc3N)on2)cc1 + COc1cc2c(cc1O)CCNC21CSC2c3c(OC(C)=O)c(C)c4c(c3C(COC1=O)N1C(O)C3Cc5cc(C)c(OC)c(O)c5C(C21)N3C)OCO4	11.7
Cn1ncnc1[C@H]1c2n[nH]c(=O)c3cc(F)cc(c23)N[C@@H]1c1ccc(F)cc1 + COc1cc2c(cc1O)CCNC21CSC2c3c(OC(C)=O)c(C)c4c(c3C(COC1=O)N1C(O)C3Cc5cc(C)c(OC)c(O)c5C(C21)N3C)OCO4	16.6
O=C(c1cc(Cc2n[nH]c(=O)c3ccccc23)ccc1F)N1CCN(C(=O)C2CC2)CC1 + COc1cc2c(cc1O)CCNC21CSC2c3c(OC(C)=O)c(C)c4c(c3C(COC1=O)N1C(O)C3Cc5cc(C)c(OC)c(O)c5C(C21)N3C)OCO4	21.9
Cc1sc2c(c1C)C(c1ccc(Cl)cc1)=NC(CC(=O)Nc1ccc(O)cc1)c1nnc(C)n1-2 (centres undefined) + COc1cc2c(cc1O)CCNC21CSC2c3c(OC(C)=O)c(C)c4c(c3C(COC1=O)N1C(O)C3Cc5cc(C)c(OC)c(O)c5C(C21)N3C)OCO4	5.79

====

- Tested on: DMS 114 tumor spheroids, viability % test/control
- assay.procedure: Anticancer human tumor DMS 114 cell line growth inhibition; active = viability on the fitted dose curve at most 10% of control; inactive = the rest;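 further: spheroids exposed to compounds for 7 days before read-out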
- measurement.context: second compound 94.9 pM; first compound 1 µM; spheroids with HUVEC and MSC
Outcomes: t for active, f for inactive

compound	subject.of.test	class
CC(C)n1c(=O)n(C)c2cnc3cc(F)c(-c4ccc(OCCCN5CCCCC5)nc4)cc3c21 + COc1cc2c(cc1O)CCNC21CSC2c3c(OC(C)=O)c(C)c4c(c3C(COC1=O)N1C(O)C3Cc5cc(C)c(OC)c(O)c5C(C21)N3C)OCO4	DMS 114 tumor spheroids, viability % test/control	f
Cc1cc(C)c(CNC(=O)c2cc(-c3ccc(CN4CCOCC4)cc3)cc3c2cnn3C2CCCC2)c(=O)[nH]1 + COc1cc2c(cc1O)CCNC21CSC2c3c(OC(C)=O)c(C)c4c(c3C(COC1=O)N1C(O)C3Cc5cc(C)c(OC)c(O)c5C(C21)N3C)OCO4	DMS 114 tumor spheroids, viability % test/control	f
COc1cc(C)[nH]c(=O)c1CN1CCc2c(Cl)cc(C(OC)C3COC3)c(Cl)c2C1=O (stereo unspecified) + COc1cc2c(cc1O)CCNC21CSC2c3c(OC(C)=O)c(C)c4c(c3C(COC1=O)N1C(O)C3Cc5cc(C)c(OC)c(O)c5C(C21)N3C)OCO4	DMS 114 tumor spheroids, viability % test/control	f
[2H]c1nc(C)nc([2H])c1-c1cc(NC[C@@H](C)c2cccc3c(C(=O)NC)ccnc23)ncn1 + COc1cc2c(cc1O)CCNC21CSC2c3c(OC(C)=O)c(C)c4c(c3C(COC1=O)N1C(O)C3Cc5cc(C)c(OC)c(O)c5C(C21)N3C)OCO4	DMS 114 tumor spheroids, viability % test/control	f
CC1COCCN1c1cc(-c2ccnn2C)c2ccnc(-c3ccn[nH]3)c2n1 (stereo unspecified) + COc1cc2c(cc1O)CCNC21CSC2c3c(OC(C)=O)c(C)c4c(c3C(COC1=O)N1C(O)C3Cc5cc(C)c(OC)c(O)c5C(C21)N3C)OCO4	DMS 114 tumor spheroids, viability % test/control	t
COc1ccc([C@@H](O)c2cc(-c3ncnc4cc(N5CCOCC5)ccc34)c(F)cc2Cl)nn1 + COc1cc2c(cc1O)CCNC21CSC2c3c(OC(C)=O)c(C)c4c(c3C(COC1=O)N1C(O)C3Cc5cc(C)c(OC)c(O)c5C(C21)N3C)OCO4	DMS 114 tumor spheroids, viability % test/control	f

====

- Tested on: DMS 114 tumor spheroids, viability % test/control
- assay.procedure: Anticancer human tumor DMS 114 cell line growth inhibition;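 further: spheroids exposed to compounds for 7 days before read-out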;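 on viability, T/C: luminescence used as a proxy for viable cells; 100% = DMSO vehicle control viability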
- measurement.context: second compound 0.03 µM; first compound 10 µM; stronger effect = lower value; spheroids with HUVEC and MSC
Reported viability, T/C by item:

compound	viability, T/C [%]
[2H]c1nc(C)nc([2H])c1-c1cc(NC[C@@H](C)c2cccc3c(C(=O)NC)ccnc23)ncn1 + CC[C@@]1(O)C(=O)OCc2c1cc1n(c2=O)Cc2cc3c(CN(C)C)c(O)ccc3nc2-1	18.9
COc1cc(C)[nH]c(=O)c1CN1CCc2c(Cl)cc(C(OC)C3COC3)c(Cl)c2C1=O (stereo not drawn) + CC[C@@]1(O)C(=O)OCc2c1cc1n(c2=O)Cc2cc3c(CN(C)C)c(O)ccc3nc2-1	18.5
COc1ccc([C@@H](O)c2cc(-c3ncnc4cc(N5CCOCC5)ccc34)c(F)cc2Cl)nn1 + CC[C@@]1(O)C(=O)OCc2c1cc1n(c2=O)Cc2cc3c(CN(C)C)c(O)ccc3nc2-1	13.5

====

- Test system: DMS 114 tumor spheroids, viability % test/control
- assay.procedure: Anticancer human tumor DMS 114 cell line growth inhibition;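 further: spheroids exposed to compounds for 7 days before read-out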
- measurement.context: curve of first compound; second compound 94.9 pM; spheroids with HUVEC and MSC
Reported IC50 by item:
endpoint.label: IC50 (nM)

molecule	subject.of.test	bound.operator	endpoint.result
COc1ccc([C@@H](O)c2cc(-c3ncnc4cc(N5CCOCC5)ccc34)c(F)cc2Cl)nn1 + COc1cc2c(cc1O)CCNC21CSC2c3c(OC(C)=O)c(C)c4c(c3C(COC1=O)N1C(O)C3Cc5cc(C)c(OC)c(O)c5C(C21)N3C)OCO4	DMS 114 tumor spheroids, viability % test/control	=	1680
Cc1cc(C)c(CNC(=O)c2cc(-c3ccc(CN4CCOCC4)cc3)cc3c2cnn3C2CCCC2)c(=O)[nH]1 + COc1cc2c(cc1O)CCNC21CSC2c3c(OC(C)=O)c(C)c4c(c3C(COC1=O)N1C(O)C3Cc5cc(C)c(OC)c(O)c5C(C21)N3C)OCO4	DMS 114 tumor spheroids, viability % test/control	>	10000
Cc1sc2c(c1C)C(c1ccc(Cl)cc1)=NC(CC(=O)Nc1ccc(O)cc1)c1nnc(C)n1-2 (centres undefined) + COc1cc2c(cc1O)CCNC21CSC2c3c(OC(C)=O)c(C)c4c(c3C(COC1=O)N1C(O)C3Cc5cc(C)c(OC)c(O)c5C(C21)N3C)OCO4	DMS 114 tumor spheroids, viability % test/control	=	97.3
CNCc1ccc(-c2cc(-c3nc(-c4ccc(S(=O)(=O)C(C)C)cc4)cnc3N)on2)cc1 + COc1cc2c(cc1O)CCNC21CSC2c3c(OC(C)=O)c(C)c4c(c3C(COC1=O)N1C(O)C3Cc5cc(C)c(OC)c(O)c5C(C21)N3C)OCO4	DMS 114 tumor spheroids, viability % test/control	=	65

====

Reported viability, T/C by item:
- System: DMS 114 tumor spheroids, viability % test/control
- assay.procedure: Anticancer human tumor DMS 114 cell line growth inhibition;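 further: spheroids exposed to compounds for 7 days before read-out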;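 on viability, T/C: luminescence used as a proxy for viable cells; 100% = DMSO vehicle control viability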
- measurement.context: second compound 0.0003 µM; first compound 3.16 µM; stronger effect = lower value; spheroids with HUVEC and MSC

molecule	viability, T/C
CC(C)n1c(=O)n(C)c2cnc3cc(F)c(-c4ccc(OCCCN5CCCCC5)nc4)cc3c21 + COc1cc2c(cc1O)CCNC21CSC2c3c(OC(C)=O)c(C)c4c(c3C(COC1=O)N1C(O)C3Cc5cc(C)c(OC)c(O)c5C(C21)N3C)OCO4	22.3%
Cc1cc(C)c(CNC(=O)c2cc(-c3ccc(CN4CCOCC4)cc3)cc3c2cnn3C2CCCC2)c(=O)[nH]1 + COc1cc2c(cc1O)CCNC21CSC2c3c(OC(C)=O)c(C)c4c(c3C(COC1=O)N1C(O)C3Cc5cc(C)c(OC)c(O)c5C(C21)N3C)OCO4	41.4%
CC1COCCN1c1cc(-c2ccnn2C)c2ccnc(-c3ccn[nH]3)c2n1 (centres undefined) + COc1cc2c(cc1O)CCNC21CSC2c3c(OC(C)=O)c(C)c4c(c3C(COC1=O)N1C(O)C3Cc5cc(C)c(OC)c(O)c5C(C21)N3C)OCO4	4.87%
[2H]c1nc(C)nc([2H])c1-c1cc(NC[C@@H](C)c2cccc3c(C(=O)NC)ccnc23)ncn1 + COc1cc2c(cc1O)CCNC21CSC2c3c(OC(C)=O)c(C)c4c(c3C(COC1=O)N1C(O)C3Cc5cc(C)c(OC)c(O)c5C(C21)N3C)OCO4	37.4%

====

Reported IC50 by item:
- Test system: DMS 114 tumor spheroids, viability % test/control
- assay.procedure: Anticancer human tumor DMS 114 cell line growth inhibition;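 further: spheroids exposed to compounds for 7 days before read-out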
- measurement.context: curve of first compound; second compound 31.6 µM; spheroids with HUVEC and MSC
endpoint.label: IC50

> print(dat)
                                   compound                           subject.of.test  endpoint.label  endpoint.result
1  [2H]c1nc(C)nc([2H])c1-c1cc(NC[C@@H](C)c2cccc3c(C(=O)NC)ccnc23)ncn1 + Cn1nnc2c(C(N)=O)ncn2c1=O  DMS 114 tumor spheroids, viability % test/control            IC50          > 10 µM
2  Cn1ncnc1[C@H]1c2n[nH]c(=O)c3cc(F)cc(c23)N[C@@H]1c1ccc(F)cc1 + Cn1nnc2c(C(N)=O)ncn2c1=O  DMS 114 tumor spheroids, viability % test/control            IC50     < 0.00949 µM
3  CC1COCCN1c1cc(-c2ccnn2C)c2ccnc(-c3ccn[nH]3)c2n1 (stereo not given) + Cn1nnc2c(C(N)=O)ncn2c1=O  DMS 114 tumor spheroids, viability % test/control            IC50      < 0.0316 µM
4  Cc1cc(C)c(CNC(=O)c2cc(-c3ccc(CN4CCOCC4)cc3)cc3c2cnn3C2CCCC2)c(=O)[nH]1 + Cn1nnc2c(C(N)=O)ncn2c1=O  DMS 114 tumor spheroids, viability % test/control            IC50          > 10 µM
5  COc1cc(C)[nH]c(=O)c1CN1CCc2c(Cl)cc(C(OC)C3COC3)c(Cl)c2C1=O (stereo not given) + Cn1nnc2c(C(N)=O)ncn2c1=O  DMS 114 tumor spheroids, viability % test/control            IC50          > 10 µM
